Each entry below carries its recorded pIC50.
Target: CD73 (Homo sapiens, UniProt P21589)
Sequence (P21589 27-549): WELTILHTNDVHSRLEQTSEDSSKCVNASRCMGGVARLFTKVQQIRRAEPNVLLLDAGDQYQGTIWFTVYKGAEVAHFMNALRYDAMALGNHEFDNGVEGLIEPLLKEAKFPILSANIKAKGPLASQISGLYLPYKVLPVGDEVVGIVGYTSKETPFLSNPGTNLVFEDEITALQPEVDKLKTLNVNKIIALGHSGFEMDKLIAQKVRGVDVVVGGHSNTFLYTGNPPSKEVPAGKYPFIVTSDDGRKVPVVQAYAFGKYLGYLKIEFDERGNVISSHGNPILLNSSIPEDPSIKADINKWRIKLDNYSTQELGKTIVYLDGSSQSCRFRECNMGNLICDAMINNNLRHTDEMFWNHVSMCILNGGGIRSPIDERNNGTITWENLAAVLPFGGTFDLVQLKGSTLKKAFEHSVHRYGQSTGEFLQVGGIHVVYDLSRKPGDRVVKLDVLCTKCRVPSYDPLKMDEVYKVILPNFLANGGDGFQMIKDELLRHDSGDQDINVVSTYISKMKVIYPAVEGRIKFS
Experiment: CD73 Biochemical IC50 Assay
Conditions: CD73 enzyme (R&D system) final 0.3 nM, final AMP 15 uM, 60 mins incubation, Rapid fire
pIC50: −log10 of the molar value.
PROPERTY_MEASURED: pIC50

structure_smiles=Cc1nc(-c2c[nH]c(=O)[nH]c2=O)cc(N2C[C@H](OC(=O)NC(C)C)C(F)(F)C2)n1 measurement_target="CD73 (Homo sapiens, UniProt P21589)" value_reported=7.88
structure_smiles=O=c1[nH]cc(-c2cc(N3C[C@H](Oc4cc5c(cn4)cnn5CC(F)(F)F)C(F)(F)C3)cc(C(F)(F)F)n2)c(=O)[nH]1 measurement_target="CD73 (Homo sapiens, UniProt P21589)" value_reported=7.89
structure_smiles=Cc1nc(-c2c[nH]c(=O)[nH]c2=O)cc(N2C[C@H](Oc3ccnc(C4(C(F)(F)F)CC4)c3)C(F)(F)C2)n1 measurement_target="CD73 (Homo sapiens, UniProt P21589)" value_reported=8.37
structure_smiles=Cc1nc(-c2c[nH]c(=O)[nH]c2=O)cc(N2C[C@H](Oc3ccc(F)c(C(F)F)c3)C(F)(F)C2)n1 measurement_target="CD73 (Homo sapiens, UniProt P21589)" value_reported=8.20
structure_smiles=Cc1nc(-c2c[nH]c(=O)[nH]c2=O)cc(N2C[C@H](Oc3cc(C(F)(F)F)ccn3)C(F)(F)C2)n1 measurement_target="CD73 (Homo sapiens, UniProt P21589)" value_reported=7.50
structure_smiles=Cc1nc(-c2c[nH]c(=O)[nH]c2=O)cc(N2C[C@H](Oc3cc(OC(F)F)ccn3)C(F)(F)C2)n1 measurement_target="CD73 (Homo sapiens, UniProt P21589)" value_reported=8.31
structure_smiles=COc1cc(N2C[C@H](Oc3cc4c(cn3)cnn4CC(F)(F)F)C(F)(F)C2)cc(-c2c[nH]c(=O)[nH]c2=O)n1 measurement_target="CD73 (Homo sapiens, UniProt P21589)" value_reported=8.05
structure_smiles=Cc1nc(-c2c[nH]c(=O)[nH]c2=O)cc(N2C[C@H](Oc3cc(C(F)F)c(F)cn3)C(F)(F)C2)n1 measurement_target="CD73 (Homo sapiens, UniProt P21589)" value_reported=7.99

###

Target: CD73 (Homo sapiens)
Test: CD73 Biochemical IC50 Assay
Details: CD73 enzyme (R&D system) final 0.3 nM, final AMP 15 uM, 60 mins incubation, Rapid fire
pIC50: −log10 of the molar value.
PROPERTY_MEASURED: pIC50

structure_smiles=Cc1cc(N2C[C@H](Oc3cc4c(cn3)cnn4CC(F)(F)F)C(F)(F)C2)cc(-c2c[nH]c(=O)[nH]c2=O)n1 measurement_target="CD73 (Homo sapiens)" property_measured=pIC50 value_reported=7.39
structure_smiles=Cc1nc(-c2c[nH]c(=O)[nH]c2=O)cc(N2C[C@H](Oc3ccnc(C(F)(F)F)c3)C(F)(F)C2)n1 measurement_target="CD73 (Homo sapiens)" property_measured=pIC50 value_reported=8.24
structure_smiles=O=c1[nH]cc(-c2cc(N3C[C@H](Oc4cc5c(cn4)cnn5CC(F)(F)F)C(F)(F)C3)nc(C3CC3)n2)c(=O)[nH]1 measurement_target="CD73 (Homo sapiens)" property_measured=pIC50 value_reported=7.59
structure_smiles=CCc1nc(-c2c[nH]c(=O)[nH]c2=O)cc(N2C[C@H](Oc3cc4c(cn3)cnn4CC(F)(F)F)C(F)(F)C2)n1 measurement_target="CD73 (Homo sapiens)" property_measured=pIC50 value_reported=7.90
structure_smiles=Cc1nc(-c2c[nH]c(=O)[nH]c2=O)cc(N2C[C@H](Oc3cc4c(cn3)c(C)nn4CC(F)(F)F)C(F)(F)C2)n1 measurement_target="CD73 (Homo sapiens)" property_measured=pIC50 value_reported=8.15
structure_smiles=Cc1nc(-c2c[nH]c(=O)[nH]c2=O)cc(N2C[C@H](Oc3ccc(F)c(OC(F)F)c3)C(F)(F)C2)n1 measurement_target="CD73 (Homo sapiens)" property_measured=pIC50 value_reported=8.38
structure_smiles=Cc1nc(-c2c[nH]c(=O)[nH]c2=O)cc(N2C[C@H](Oc3ccc4cnn(CC(F)(F)F)c4c3)C(F)(F)C2)n1 measurement_target="CD73 (Homo sapiens)" property_measured=pIC50 value_reported=8.20
